As shown below, each of these compounds has a reported pIC50 value.
experiment: Inhibition of electron transport protein complex 1 in Ascaris suum mitochondria assessed as reduction in rhodoquinol-fumarate reductase activity by measuring NADH oxidation using NADH, sodium fumarate and decyl-rhodoquinone
To interpret pIC50, take it as minus log10 of a concentration measured in moles per litre.

Example cases with answers are listed next.
query: Reported pIC50 for CC[C@H](C)/C=C/C=C(\C)C[C@@H](C)/C=C/C=C/[C@@H](O)[C@]1(C)C=C(O)C(=O)O1 : what is it?
result: 8.22

query: Reported pIC50 for C/C(=C\CCC(C)C)CCCC/C=C/[C@@H](O)[C@]1(C)CCC(=O)O1 : what is it?
result: 6.47

query: Reported pIC50 for CC[C@H](C)CC/C=C(\C)C[C@@H](C)CC/C=C/[C@@H](O)[C@]1(C)CCC(=O)O1 : what is it?
result: 6.26

query: Reported pIC50 for CC(C)=CCC/C(C)=C/CC/C(C)=C/CC[C@@H](O)[C@]1(C)CCC(=O)O1 : what is it?
result: 6.09

query: Reported pIC50 for CC(C)=CCC/C(C)=C/CC/C(C)=C/CC[C@@H](O)[C@]1(C)CCCO1 : what is it?
result: 6.30

---
query: Reported pIC50 for CCc1ccc2ccc(Cc3cccc(/C=C/[C@@H](O)[C@]4(C)CCC(=O)O4)c3)cc2c1 : what is it?
result: 6.26

query: Reported pIC50 for C/C(=C\CCC(C)C)C[C@@H](C)CC/C=C/[C@@H](O)[C@]1(C)CCC(=O)O1 : what is it?
result: 6.52

Origin of values: ChEMBL document CHEMBL3397010
